Molecular target: T1, full-length human Tau (Tau441; 2N4R), recombinant (human, UniProt P10636 1-758)
T1 construct: made in E. coli, His6-Smt3 tag removed; biotinylated through amines for Octet and phage work; also called r-Tau; recombinant Tau
T1 sequence (P10636 other isoform, or with tags, fused parts or gaps limits assumed): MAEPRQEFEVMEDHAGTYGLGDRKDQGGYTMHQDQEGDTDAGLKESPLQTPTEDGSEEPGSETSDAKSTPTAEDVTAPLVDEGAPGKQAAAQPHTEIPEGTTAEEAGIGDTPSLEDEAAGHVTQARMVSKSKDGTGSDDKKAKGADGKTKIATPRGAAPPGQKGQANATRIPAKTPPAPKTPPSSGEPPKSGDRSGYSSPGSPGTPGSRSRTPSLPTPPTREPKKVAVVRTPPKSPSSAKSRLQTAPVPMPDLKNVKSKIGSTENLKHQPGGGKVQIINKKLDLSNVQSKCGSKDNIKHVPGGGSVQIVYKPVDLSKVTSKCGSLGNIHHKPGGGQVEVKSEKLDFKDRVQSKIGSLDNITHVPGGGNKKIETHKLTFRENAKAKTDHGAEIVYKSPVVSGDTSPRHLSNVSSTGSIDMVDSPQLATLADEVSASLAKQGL
Assay: SPR Biacore
Readout: log10 Kd (log10 of the value in pM)
Please interpret these as log10 of Kd where Kd is in pM.

Use these answered entries as a reference point.
{"Binder": "Clone with H2_5 (antibody, V domains shown, based on hu1C7.v2) VH: EVQLLESGGGLVQPGGSLRLSCAASGFTFSSYGMSWVRQAPGKGLEWVASISGDGGSYIHYASSVKGRFTISRDNSKNTLYLQMNSLRAEDTAVYYCARLPYWGQGTLVTVSS VL: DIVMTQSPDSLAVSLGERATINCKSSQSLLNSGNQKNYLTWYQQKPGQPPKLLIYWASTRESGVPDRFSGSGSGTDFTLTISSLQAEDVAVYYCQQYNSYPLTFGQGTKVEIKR", "Measured Value": 3.58}
{"Binder": "Clone with H1_4-4 (antibody, V domains shown, based on hu1C7.v2) VH: EVQLLESGGGLVQPGGSLRLSCAASGFRFSSPGMSWVRQAPGKGLEWVASISGDGGSYIHYADSVKGRFTISRDNSKNTLYLQMNSLRAEDTAVYYCARLPYWGQGTLVTVSS VL: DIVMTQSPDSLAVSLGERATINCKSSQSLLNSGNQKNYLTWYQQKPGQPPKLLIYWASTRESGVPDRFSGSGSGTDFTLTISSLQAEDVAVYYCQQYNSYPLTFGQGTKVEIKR", "Measured Value": 3.58}
{"Binder": "Clone with L1_3-3 (antibody, V domains shown, based on hu1C7.v2) VH: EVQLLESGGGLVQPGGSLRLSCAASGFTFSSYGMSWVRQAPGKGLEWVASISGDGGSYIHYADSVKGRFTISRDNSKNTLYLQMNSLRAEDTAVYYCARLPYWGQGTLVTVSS VL: DIVMTQSPDSLAVSLGERATINCKSSQSLHYSGTQKDYLVWYQQKPGQPPKLLIYWASTRESGVPDRFSGSGSGTDFTLTISSLQAEDVAVYYCQQYNSYPLTFGQGTKVEIK", "Measured Value": 1.89}

// next entry
input: Recorded log10 Kd of Clone with L1_3-2 (antibody, V domains shown, based on hu1C7.v2) VH: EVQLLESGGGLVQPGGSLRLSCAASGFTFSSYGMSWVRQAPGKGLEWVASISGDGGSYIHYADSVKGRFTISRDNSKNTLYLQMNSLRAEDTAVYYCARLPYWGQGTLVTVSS VL: DIVMTQSPDSLAVSLGERATINCKSSQSLLRSGTQKDYLVWYQQKPGQPPKLLIYWASTRESGVPDRFSGSGSGTDFTLTISSLQAEDVAVYYCQQYNSYPLTFGQGTKVEIK , please.
output: 2.11

These data points were gathered from patent US20200216522A1.
